B1: HDV Ribozyme (parent)
chain: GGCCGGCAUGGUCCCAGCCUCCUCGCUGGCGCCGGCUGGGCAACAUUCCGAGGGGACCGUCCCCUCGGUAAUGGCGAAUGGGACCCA

# Variants of: B1
# Test Protocol: self-cleavage, relative activity (ratio to wild type); higher = more cleavage; co-transcriptional
Outcome label depends on self-cleavage relative to 0.08: at/above gives Yes, below gives No.

[[record]]
variant_annotation = "G25U C61U"
label = "Yes"

[[record]]
variant_annotation = "G6A C44A"
label = "Yes"

[[record]]
variant_annotation = "C41G A78C"
label = "No"

[[record]]
variant_annotation = "G2U A77U"
label = "No"

[[record]]
variant_annotation = "G5C C85G"
label = "No"

[[record]]
variant_annotation = "U12G A51G"
label = "Yes"

[[record]]
variant_annotation = "A45C C85U"
label = "Yes"

[[record]]
variant_annotation = "C18G G73A"
label = "No"

[[record]]
variant_annotation = "U27C G80C"
label = "Yes"

[[record]]
variant_annotation = "C18G G68U"
label = "Yes"

[[record]]
variant_annotation = "C24G G31U"
label = "No"

[[record]]
variant_annotation = "A70C G82A"
label = "Yes"

[[record]]
variant_annotation = "C75A A83U"
label = "Yes"

[[record]]
variant_annotation = "G54C C63U"
label = "Yes"

[[record]]
variant_annotation = "U37A A78G"
label = "Yes"

[[record]]
variant_annotation = "U23A C84U"
label = "Yes"

[[record]]
variant_annotation = "C15U U60G"
label = "Yes"

[[record]]
variant_annotation = "C4U A42G"
label = "Yes"

[[record]]
variant_annotation = "U20A G55U"
label = "No"

[[record]]
variant_annotation = "A8G U72C"
label = "Yes"

[[record]]
variant_annotation = "G11C G34U"
label = "No"

[[record]]
variant_annotation = "C4A C32U"
label = "No"

[[record]]
variant_annotation = "C15A U69C"
label = "Yes"

[[record]]
variant_annotation = "G38C U72A"
label = "Yes"

[[record]]
variant_annotation = "C13U C14U"
label = "Yes"

[[record]]
variant_annotation = "C49A G50A"
label = "Yes"

[[record]]
variant_annotation = "A45C C58G"
label = "Yes"

[[record]]
variant_annotation = "C4A G39C"
label = "No"

[[record]]
variant_annotation = "C3A G81C"
label = "No"

[[record]]
variant_annotation = "C3U C63U"
label = "Yes"

[[record]]
variant_annotation = "C24G U37G"
label = "No"

[[record]]
variant_annotation = "C63G U72C"
label = "Yes"

